Biological target: T1, human CLDN6 (UniProt P56747 1-220)
T1 chain: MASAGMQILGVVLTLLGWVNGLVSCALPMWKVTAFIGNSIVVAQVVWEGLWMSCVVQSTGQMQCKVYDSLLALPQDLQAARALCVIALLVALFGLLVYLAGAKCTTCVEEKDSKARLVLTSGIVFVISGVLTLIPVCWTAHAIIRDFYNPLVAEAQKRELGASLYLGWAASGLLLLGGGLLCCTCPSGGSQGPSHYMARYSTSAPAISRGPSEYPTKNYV
Test: HEK293E cell binding; avid
readout_kind: EC50 (µg/mL)
Give just the numeric value; µg/mL need not be written.

Can you look up the measured EC50 of XENP35062 H2_L1.19 (antibody, V domains shown) VH: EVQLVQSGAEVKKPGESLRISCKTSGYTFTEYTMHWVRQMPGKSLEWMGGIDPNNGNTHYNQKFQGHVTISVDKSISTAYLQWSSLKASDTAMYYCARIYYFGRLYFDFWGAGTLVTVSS VL: DIQMTQSPSSLSASVGDRVTITCQASEDIYNRLAWYQQKPGKVPKLLISGASSLETGVPSRFSGSGSGKDYTFTISSLQPEDIATYYCQQYWSSPLTFGGGTKVEIKR for me? 1.23

Sample XENP35101 having H2.8_L1 (antibody, V domains shown) VH: EVQLVQSGAEVKKPGESLRISCKTSGYTFTEYTMHWVRQMPGKSLEWMGGIDPNNDNTHYNQKFQGHVTISVDKSISTAYLQWSSLKASDTAMYYCARIYYFGRLYFDFWGAGTLVTVSS VL: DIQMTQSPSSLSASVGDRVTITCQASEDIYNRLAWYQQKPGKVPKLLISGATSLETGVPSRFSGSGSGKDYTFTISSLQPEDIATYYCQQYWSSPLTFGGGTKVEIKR — what was its EC50? 24.8

Consider the binder XENP35096 H2.3_L1 (antibody, V domains shown) VH: EVQLVQSGAEVKKPGESLRISCKTSGYTFTEYTMHWVRQMPGKSLEWMGGIDSNNGNTHYNQKFQGHVTISVDKSISTAYLQWSSLKASDTAMYYCARIYYFGRLYFDFWGAGTLVTVSS VL: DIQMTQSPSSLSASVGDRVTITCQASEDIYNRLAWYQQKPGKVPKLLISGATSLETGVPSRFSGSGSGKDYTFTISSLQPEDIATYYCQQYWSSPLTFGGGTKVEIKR and give its measured EC50. 1.24

Using the record for XENP35100 H2.7_L1 (antibody, V domains shown) VH: EVQLVQSGAEVKKPGESLRISCKTSGYTFTEYTMHWVRQMPGKSLEWMGGIDPNQGNTHYNQKFQGHVTISVDKSISTAYLQWSSLKASDTAMYYCARIYYFGRLYFDFWGAGTLVTVSS VL: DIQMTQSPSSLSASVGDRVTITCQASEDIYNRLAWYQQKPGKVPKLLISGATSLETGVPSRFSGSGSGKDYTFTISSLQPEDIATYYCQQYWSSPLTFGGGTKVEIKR , report its EC50. 1.14

Query (binder): XENP35097 H2.4_L1 (antibody, V domains shown) VH: EVQLVQSGAEVKKPGESLRISCKTSGYTFTEYTMHWVRQMPGKSLEWMGGIDGNNGNTHYNQKFQGHVTISVDKSISTAYLQWSSLKASDTAMYYCARIYYFGRLYFDFWGAGTLVTVSS VL: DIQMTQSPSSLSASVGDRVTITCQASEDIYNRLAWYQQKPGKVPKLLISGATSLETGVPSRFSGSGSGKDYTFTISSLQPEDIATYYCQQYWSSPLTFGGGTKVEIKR ; field requested: EC50 1.1
